Values compiled from the supplement of paper PMC11908140.

B1: library; numbered along this chain (parent)
chain: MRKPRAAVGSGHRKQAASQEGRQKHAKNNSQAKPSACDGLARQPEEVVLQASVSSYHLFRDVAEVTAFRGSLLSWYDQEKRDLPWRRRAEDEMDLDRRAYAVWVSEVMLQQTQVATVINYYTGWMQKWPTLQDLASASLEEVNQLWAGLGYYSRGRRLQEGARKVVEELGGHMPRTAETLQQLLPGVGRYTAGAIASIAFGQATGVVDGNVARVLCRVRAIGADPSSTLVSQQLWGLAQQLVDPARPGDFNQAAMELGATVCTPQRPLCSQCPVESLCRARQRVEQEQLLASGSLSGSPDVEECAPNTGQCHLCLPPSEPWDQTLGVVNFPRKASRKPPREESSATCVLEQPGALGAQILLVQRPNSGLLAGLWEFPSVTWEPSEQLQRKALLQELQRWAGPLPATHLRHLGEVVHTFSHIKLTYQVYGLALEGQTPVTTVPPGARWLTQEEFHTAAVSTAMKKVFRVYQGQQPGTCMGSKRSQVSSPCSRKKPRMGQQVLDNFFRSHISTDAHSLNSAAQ

- Variants of: B1
- protocol_description: 8OG:A repair function score (normalized; synonymous = 0, nonsense = -1) (normalized log-likelihood score); higher = more repair activity (WT-like);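 further: cells sorted at 72 h after reporter transfection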
- details: with 8OG:A DNA repair reporter (GFP) in HEK-293 MUTYH KO cells
Respond with met for 8OG:A repair function score values of 0.0003 and above, not met for values below.

Example entries begin here.
- V214F: not met
- L396G: not met
- E141A: not met
- L408M: not met

Inquiry: Item `A254E` with 8OG:A repair function score of 0.0003 or above?
Reply text: not met

Inquiry: Item `V214K` with 8OG:A repair function score of 0.0003 or above?
Reply text: not met

Inquiry: Item `S227A` with 8OG:A repair function score of 0.0003 or above?
Reply text: not met

Inquiry: Item `H508E` with 8OG:A repair function score of 0.0003 or above?
Reply text: met

Inquiry: Item `P488H` with 8OG:A repair function score of 0.0003 or above?
Reply text: met

Inquiry: Item `P317Y` with 8OG:A repair function score of 0.0003 or above?
Reply text: not met

Inquiry: Item `S294I` with 8OG:A repair function score of 0.0003 or above?
Reply text: met

Inquiry: Item `T440F` with 8OG:A repair function score of 0.0003 or above?
Reply text: met

Inquiry: Item `T449A` with 8OG:A repair function score of 0.0003 or above?
Reply text: met
